Test: protease stability score; higher = more stable; yeast display proteolysis, trypsin and chymotrypsin;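 further: log10 excess protease needed over predicted unfolded state with 0 meaning unfolded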
measured property: protease stability score
Give bare numbers.

1. DEEALKNVKENLEDGDWDNLAKQADENATWVYGEKRVHGRRDLKKYAEAMKRQIDHWSIRSITTRGNKASVNAEVQVNGHRRSFHIEVEVENGHIKHWNMNFTDPTDERKVLKILE = -0.017
2. DRQNKAQDLAEELRRAFHTNNEDQFKKLADKNARATVGEHTFHGSDEIRKVLKELVDNVDHLRVDIHSVSVHNGQINIDMKLILDHNGRKETQEVHIRAQDHNGQNKVRNITFG = -0.154

With those in mind, consider the next sequence.
Data request: Reported protease stability score for "DEEEAKKFMETWQKAVEKGDTKTARELYDPNVEWIDYSQRHQGVEMVVKQMQQVKKKGVEFQIRKAKVEGNEVEVVYDANIGNETATFTVQFRAEGGRVKEVRVKMDEKAKKIKREG" : what is it?
Data returned: 0.064

###

Assay: protease stability score; higher = more stable; yeast display proteolysis, trypsin and chymotrypsin;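 further: log10 excess protease needed over predicted unfolded state with 0 meaning unfolded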
We'd kindly ask you to apply these protease stability score classes: group A (below -0.02), group B (-0.02 to below 0.5), group C (0.5 or more)

Reference set (6 entries):
1. DEDALDLLEKAARAYQTGDPDQLMRNLDEDAKVDVGDKKIRGRNDARRHLQELKDKIELHLHVTEMSVQGNKVHAHFKLHSDQNGKPYHTDVEMRADVHNGRVKRMEIRTTK = group A
2. DESELERAIEMLEQNDPEEARRQVDKNAHMQVGEKSWTGREDVQTALVKHNEHVDHVEVKSVTKRGDKAEVKARVEFNGHNLKANFIVEVHNGKIKHVRVEVTDEEQKKLMRELLQ = group A
3. DEDDLRHVEKVLRENDEDTFAEMADEDVSADIGDKTLTGREEVKKMLQKLHKQADHVEIKSVTNRGDNVKVDMVMNYNGRNLRFSRSAEFTNGRIKHVSIRVTSEEDQDVLQRLLD = group C
4. DEEVAEQAAKLLEHNDFEKLVDMVDPNVDVEYGDKTVSGRNRVKRVMEKWTRRYDHYEIHTYSISNGRLSADVRAVVNGREVRYVQTIRVHNGRIQKMKIDVTDEDDERNLRKLES = group A
5. DEEEVKQAIDRWEQGDPDQLKELVDENAHMVIGDKRLHGRETFEKMIKNLMDQADHITIESVEVQGDKAVMDVVANFNGKTVRYEVEIRIQNGQIKYLQINVTNEHDEHRFDQWLG = group C
6. DEEKEKRTARQVADVLRSGNPDEMMKLADKDAEVRVGDHVLHGREEISKLMHELRRRIDHLEIKHVEVDNGSVNIVYVVRHNGKTEVVVLHVDFHNGKIREMTVRSG = group C

Data request: Bin this entry: "DENREASTFMEQLQRNLRDGDHEEVVRMIDENARLEVGDKRIEGDHNVAHELMNQARRVDHFKMNITHLEVSNGRVKVVFIAKYEVNGRTEVNVYEQVLEIENGRLSLVSRRRK"
Data returned: group C

Data request: Continue with "DDDAIKRFHEQVDNEQHNNEEEQEKNVDPNATVNVGDKTYHGREKWREVVKRENEEMRVKYQHVTFRRHPGRVIVRFRIVNDHNGKPTETDVNANYQMHNGRIRQVNRRTDG"
Data returned: group B

Data request: Continue with "DEEELRELVRNIIEQLQQNNEEELKKQMDKDARMQYGDKEWHGREDIVRHLASVAHQVDHLELESVSVDGNKAHFTFRRQVNGHDETLRAELVVRNGRVVSIKYRHN"
Data returned: group A

Data request: Continue with "DEEDFNNAQSMIKDEEQGDEEQITRNLDPNVKIRVGDKRLHGRENYAREVARKARRIRVEVHIRSVSHSGNHIRIDVEVHEQQNGKPDHSRFVVLMHYNNGTVKKAQFDDTD"
Data returned: group B

Data request: Continue with "DEHKQIREFQKKQQKWWERGNWEELDKMFPPDARMSIGDTTVHGRESIRKTLKDLVDSADSVSVEFKHFKFHNGRAHVDAVLSVDVNGKKVDVKFNANLQVHNGTLFVDEVVRK"
Data returned: group B
